Give measured ΔTm (N = G), in parentheses for each item. Keep answers brief.
System: single-stranded RNA:5′-r(ACGAGANCAUCC)-3′, N = G
Test: Tm measurement with single-stranded RNA (base sequence identifying ability), N = G
Assay type: binding
Conditions: mismatch RNA N = G, difference from N = A
Method: A sample solution ([…]) with final concentrations of 10 mM phosphate buffer (pH7.0), 200 mM sodium chloride, and 2.5 μM each oligonucleotide was immersed in boiling water and slowly cooled to room temperature. […] The temperature was raised to 90° C. at a rate of 0.5° C. per minute, and the absorbance at 260 nm was plotted at intervals of 0.5° C. All Tm values were calculated by the midline method and the average of three independent measurement results was taken. […]

Prompt line: Look up and report measured ΔTm (N = G), in parentheses (single-stranded RNA:5′-r(ACGAGANCAUCC)-3′, N = G) for the following substance: 5′-GGATGYTCTCGT-3′: modified oligonucleotide with one Y modification; Y not defined in the visible text (DNA GGATGTTCTCGT; Y modified nucleotide; misc_difference (6)..(6) LNA)
Response line: -5 º C.

Prompt line: Find ΔTm (N = G), in parentheses for 5′-GGATGTTCTCGT-3′: unmodified (natural) oligonucleotide, SEQ ID NO: 1 (unmodified DNA) on single-stranded RNA:5′-r(ACGAGANCAUCC)-3′, N = G and write it down.
Response line: -4 º C.

Prompt line: For single-stranded RNA:5′-r(ACGAGANCAUCC)-3′, N = G, give ΔTm (N = G), in parentheses of the listed substance: 5′-GGATGZTCTCGT-3′: modified oligonucleotide with one Z modification; Z not defined in the visible text (DNA GGATGTTCTCGT; Z modified nucleotide; misc_difference (6)..(6) ENA)
Response line: -4 º C.

Prompt line: Look up single-stranded RNA:5′-r(ACGAGANCAUCC)-3′, N = G data: ΔTm (N = G), in parentheses of 5′-GGATGXTCTCGT-3′: modified oligonucleotide with one X modification; X not defined in the visible text (DNA GGATGTTCTCGT; DNA oligonucleotide with modified nucleotide X, X not given here, further chemistry not given here) , then report it.
Response line: -5 º C.

====

Kindly state Tm (N = A) for each of the entries shown.
Tested on: single-stranded RNA: 5′-r(ACGAGAACAUCC)-3′ (SEQ ID NO: 11)
Assay: Melting temperature (Tm) measurement, double strand-forming ability, with single-stranded RNA
Type: binding
Settings: Table 2, full-match RNA N = A; 10 mM sodium phosphate buffer, 200 mM NaCl
Give the value in °C but do not write °C after it.

Prompt line: Give the value of Tm (N = A) reported for the following: 5′-GGATGTTCTCGT-3′: unmodified (natural) oligonucleotide, SEQ ID NO: 1 (unmodified DNA)
Response line: 52

Prompt line: Using known records, supply Tm (N = A) for 5′-GGATGYTCTCGT-3′: modified oligonucleotide with one Y modification; Y not defined in the visible text (DNA GGATGTTCTCGT; Y modified nucleotide; misc_difference (6)..(6) LNA)
Response line: 58

Prompt line: Please give the documented Tm (N = A) of 5′-GGATGXTCTCGT-3′: modified oligonucleotide with one X modification; X not defined in the visible text (DNA GGATGTTCTCGT; DNA oligonucleotide with modified nucleotide X, X not given here, further chemistry not given here)
Response line: 58

Prompt line: Name the recorded Tm (N = A) of the substance listed here: 5′-GGATGZTCTCGT-3′: modified oligonucleotide with one Z modification; Z not defined in the visible text (DNA GGATGTTCTCGT; Z modified nucleotide; misc_difference (6)..(6) ENA)
Response line: 58
